System: T1, EsCas13d, nuclease-dead (Eubacterium siraeum, UniProt B0MS50, R295A;H300A;R849A;H854A)
T1 sequence: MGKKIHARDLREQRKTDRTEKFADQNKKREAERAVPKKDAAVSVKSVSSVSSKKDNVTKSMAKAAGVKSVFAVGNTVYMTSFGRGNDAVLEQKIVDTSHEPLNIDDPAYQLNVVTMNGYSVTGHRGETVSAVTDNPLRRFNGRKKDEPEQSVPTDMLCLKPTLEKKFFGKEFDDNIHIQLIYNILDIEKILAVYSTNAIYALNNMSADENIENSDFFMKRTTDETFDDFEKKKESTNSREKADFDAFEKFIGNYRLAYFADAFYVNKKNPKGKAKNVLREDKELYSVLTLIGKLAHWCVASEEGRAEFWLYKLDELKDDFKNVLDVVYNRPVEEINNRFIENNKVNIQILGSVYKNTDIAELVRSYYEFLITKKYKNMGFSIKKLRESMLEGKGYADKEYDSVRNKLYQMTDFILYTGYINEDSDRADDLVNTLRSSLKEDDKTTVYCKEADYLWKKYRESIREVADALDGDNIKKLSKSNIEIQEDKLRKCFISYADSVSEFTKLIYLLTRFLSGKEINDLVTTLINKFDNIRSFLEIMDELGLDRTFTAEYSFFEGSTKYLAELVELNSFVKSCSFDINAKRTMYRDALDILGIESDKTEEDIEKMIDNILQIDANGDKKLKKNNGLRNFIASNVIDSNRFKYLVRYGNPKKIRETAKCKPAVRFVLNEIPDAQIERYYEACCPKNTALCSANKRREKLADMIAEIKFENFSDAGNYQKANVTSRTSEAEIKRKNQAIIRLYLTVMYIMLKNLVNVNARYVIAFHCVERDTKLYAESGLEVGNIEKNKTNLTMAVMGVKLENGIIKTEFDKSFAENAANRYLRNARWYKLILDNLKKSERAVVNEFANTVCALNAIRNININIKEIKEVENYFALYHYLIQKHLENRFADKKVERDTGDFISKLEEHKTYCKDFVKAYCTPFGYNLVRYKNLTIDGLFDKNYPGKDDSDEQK
Run Description: crRNA (strand 1, pre-loaded); Mg2+; 40 mM Tris-HCl pH 7.5, 150 mM NaCl, 6 mM MgCl2, 1 mM DTT, 0.1% Tween-20, 0.2 mg/ml BSA; 25 C; 10 min per concentration, then washed
Test Context: tags: His6-TwinStrep-SUMO cleaved; N-terminal SNAP kept (SNAP-Surface 488); label: 3' end held by stalled T7 RNA polymerase
Readout Kind: log10(Kd) (log10 of the value in nM)

target 2 MT 5'PFS CCC 3'PFS UCC (mixed) RNA 1: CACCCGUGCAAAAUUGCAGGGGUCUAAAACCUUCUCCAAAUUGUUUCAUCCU RNA 2: GGGAAUGGAUCCACAUCUACGAAUUCCCCAGGAUGAAACAAUUUGGAGAAGUCCAGAUCGGAAGAGCACACGU = 0.32
target 1 MT 5'PFS GCC 3'PFS AGA (mixed) RNA 1: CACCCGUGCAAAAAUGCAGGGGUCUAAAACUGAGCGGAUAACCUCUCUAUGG RNA 2: GGGAAUGGAUCCACAUCUACGAAUUCGCCCCAUAGAGAGGUUAUCCGCUCAAGAAGAUCGGAAGAGCACACGU = 1.39
target 3 insU 3' of 22,insU 3' of 13 (mixed) RNA 1: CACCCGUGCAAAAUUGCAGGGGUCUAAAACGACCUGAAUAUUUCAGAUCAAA RNA 2: GGGAAUGGAUCCACAUCUACGAAUUCGUUUUUUGAUCUGAUAAUAUUCAGGUCUGCAGAUCGGAAGAGCACACGU = 1.85
target 2 MT 5'PFS GGG 3'PFS AAU (mixed) RNA 1: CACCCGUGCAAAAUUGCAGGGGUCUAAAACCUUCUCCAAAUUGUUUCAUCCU RNA 2: GGGAAUGGAUCCACAUCUACGAAUUCGGGAGGAUGAAACAAUUUGGAGAAGAAUAGAUCGGAAGAGCACACGU = 0.79
target 2 MT 5'PFS AAU 3'PFS AUU (mixed) RNA 1: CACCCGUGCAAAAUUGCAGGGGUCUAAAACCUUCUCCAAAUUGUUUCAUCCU RNA 2: GGGAAUGGAUCCACAUCUACGAAUUCAAUAGGAUGAAACAAUUUGGAGAAGAUUAGAUCGGAAGAGCACACGU = 0.72
target 2 MT 5'PFS CGC 3'PFS CAA (mixed) RNA 1: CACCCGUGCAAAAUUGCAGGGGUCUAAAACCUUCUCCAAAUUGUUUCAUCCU RNA 2: GGGAAUGGAUCCACAUCUACGAAUUCCGCAGGAUGAAACAAUUUGGAGAAGCAAAGAUCGGAAGAGCACACGU = 0.87
target 1 insA 3' of 11,insU 3' of 6 (mixed) RNA 1: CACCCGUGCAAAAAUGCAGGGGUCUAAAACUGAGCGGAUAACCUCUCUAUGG RNA 2: GGGAAUGGAUCCACAUCUACGAAUUCGUACCAUAGAGAGGUAUAUCCUGCUCACCGAGAUCGGAAGAGCACACGU = 1.26
